Each entry below carries its reported inhibition at 10 µM.
experimentalSystem: mGluR5 receptor (Sus scrofa)
assayMethodText: Affinity for the mGluR5 receptor: inhibition of 3[H]-MPEP binding in pig brain homogenate
testContext: 10 μM compound, 5 nM 3[H]-MPEP, read-out: mGluR5 receptor inhibition of ^3[H]-MPEP binding [10 μM] in % at a concentration of the example compounds of 10 μM
Where a name gives a salt, the structure may show the parent alone.
Lab book: enter the figure in %, no units written.

The examples below pair each entry with its known result.
Cc1cc(C#Cc2ccc(-c3nc4ccccn4c3NC(C)(C)C)s2)ccc1F [Example 348, hydrochloride] : 44
COc1cccc(Nc2c(-c3ccc(C#Cc4ccccc4)s3)nc3ccc(C)cn23)c1 : 73
CC(C)(C)CC(C)(C)Nc1c(-c2ccc(C#Cc3ccccc3)s2)nc2ccc(Cl)cn12 : 26
CC(C)c1ccn2c(NC(C)(C)C)c(-c3cccc(C#Cc4ccccn4)c3)nc2c1 : 76
Cc1cccc(C#Cc2cccc(-c3nc4ccc(Cl)cn4c3NC(C)(C)C)c2)n1 : 77
CCc1ccn2c(NCc3cccc(C(F)(F)F)c3)c(-c3ccc(C#Cc4ccccc4)s3)nc2c1 : 80
Fc1ccc(Nc2c(-c3ccc(C#Cc4ccccc4)s3)nc3cc(CCCc4ccccc4)ccn23)c(F)c1 : 90

Incoming: What inhibition at 10 µM value was documented for this compound, CC(C)(C)Nc1c(-c2ccc(C#Cc3ccccn3)o2)nc2ccc(Cl)cn12 ?
Outgoing: 55

###

experimentalSystem: mGluR5 receptor (Sus scrofa)
assayMethodText: Affinity for the mGluR5 receptor: inhibition of 3[H]-MPEP binding in pig brain homogenate
testContext: 10 μM compound, 5 nM 3[H]-MPEP, read-out: mGluR5 receptor inhibition of ^3[H]-MPEP binding [10 μM] in % at a concentration of the example compounds of 10 μM
assayReadout: inhibition at 10 µM (%)
Lab book: enter the figure in %, no units written.

The examples below pair each entry with its known result.
CC(C)(C)CC(C)(C)Nc1c(-c2cccc(C#Cc3ccccn3)c2)nc2ccc(Cl)cn12 : 33
C(#Cc1ccc(-c2nc3ccccn3c2NC2CCCCC2)o1)c1ccccn1 : 72
COc1cccc(CCNc2c(-c3ccc(C#Cc4ccccc4)o3)nc3nc(C)cc(C)n23)c1 : 31

Consider now this further compound.
Incoming: What inhibition at 10 µM value was documented for this compound, Cc1cc(Br)c2nc(-c3ccc(C#Cc4ccccn4)s3)c(NC3CCCC3)n2c1 ?
Outgoing: 82

###

experimentalSystem: mGluR5 receptor (Sus scrofa, UniProt I3LUI7)
Sequence (I3LUI7 19-1212): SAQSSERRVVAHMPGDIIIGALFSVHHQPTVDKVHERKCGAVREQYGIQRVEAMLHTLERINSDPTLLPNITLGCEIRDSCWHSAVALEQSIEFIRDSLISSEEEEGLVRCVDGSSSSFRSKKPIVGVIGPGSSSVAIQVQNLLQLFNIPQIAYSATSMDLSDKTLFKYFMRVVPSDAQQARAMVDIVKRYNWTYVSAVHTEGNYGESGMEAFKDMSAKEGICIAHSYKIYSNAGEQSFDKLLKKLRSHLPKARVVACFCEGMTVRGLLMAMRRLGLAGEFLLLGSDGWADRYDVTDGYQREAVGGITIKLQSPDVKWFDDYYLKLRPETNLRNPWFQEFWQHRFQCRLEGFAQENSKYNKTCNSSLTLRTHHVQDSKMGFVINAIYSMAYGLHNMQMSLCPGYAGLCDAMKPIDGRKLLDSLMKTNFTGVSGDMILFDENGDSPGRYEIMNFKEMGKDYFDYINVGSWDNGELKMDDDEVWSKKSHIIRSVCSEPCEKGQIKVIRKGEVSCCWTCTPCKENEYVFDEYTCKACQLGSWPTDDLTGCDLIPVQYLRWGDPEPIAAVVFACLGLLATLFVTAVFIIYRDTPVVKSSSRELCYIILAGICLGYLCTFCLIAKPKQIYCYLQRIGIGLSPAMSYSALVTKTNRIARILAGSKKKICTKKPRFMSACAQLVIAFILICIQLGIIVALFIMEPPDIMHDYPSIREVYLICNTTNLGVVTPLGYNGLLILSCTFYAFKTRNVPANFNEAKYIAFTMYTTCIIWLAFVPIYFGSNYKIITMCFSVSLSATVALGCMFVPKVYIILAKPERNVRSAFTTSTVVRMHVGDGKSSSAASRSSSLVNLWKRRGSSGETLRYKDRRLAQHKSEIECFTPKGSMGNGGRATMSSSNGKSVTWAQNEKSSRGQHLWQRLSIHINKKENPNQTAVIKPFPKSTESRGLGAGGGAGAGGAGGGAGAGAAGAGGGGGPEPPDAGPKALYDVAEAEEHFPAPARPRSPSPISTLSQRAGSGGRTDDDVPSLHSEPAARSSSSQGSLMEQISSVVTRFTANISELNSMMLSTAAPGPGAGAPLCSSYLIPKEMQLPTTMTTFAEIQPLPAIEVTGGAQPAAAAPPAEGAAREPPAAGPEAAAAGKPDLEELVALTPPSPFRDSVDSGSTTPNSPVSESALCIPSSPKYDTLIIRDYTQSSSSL
assayMethodText: Affinity for the mGluR5 receptor: inhibition of 3[H]-MPEP binding in pig brain homogenate
testContext: 10 μM compound, 5 nM 3[H]-MPEP, read-out: mGluR5 receptor inhibition of ^3[H]-MPEP binding [10 μM] in % at a concentration of the example compounds of 10 μM
assayReadout: inhibition at 10 µM
State the value with its unit after it.

C(#Cc1ccc(-c2nc3cnccn3c2NC2CCCCC2)o1)c1ccccn1 : 83%
Cc1cc(C)n2c(NC(C)c3ccccc3)c(-c3ccc(C#Cc4ccccc4)s3)nc2c1 (centres unmarked) : 87%
Cc1cccc(C#Cc2cccc(-c3nc4cccc(C)n4c3NC(C)(C)CC(C)(C)C)c2)n1 : 92%

Incoming: State its inhibition at 10 µM on mGluR5 receptor (Sus scrofa, UniProt I3LUI7): COc1cccc(CCNc2c(-c3ccc(C#Cc4ccccc4)s3)nc3nc(C)cc(C)n23)c1
Outgoing: 53%

Incoming: State its inhibition at 10 µM on mGluR5 receptor (Sus scrofa, UniProt I3LUI7): C(#Cc1ccc(-c2nc3ccccn3c2Nc2ccco2)o1)c1ccccc1
Outgoing: 69%

Incoming: State its inhibition at 10 µM on mGluR5 receptor (Sus scrofa, UniProt I3LUI7): Cc1ccn2c(NCC3CCCCC3)c(-c3ccc(C#Cc4ccccc4)s3)nc2c1
Outgoing: 91%

Incoming: State its inhibition at 10 µM on mGluR5 receptor (Sus scrofa, UniProt I3LUI7): CC(C)(C)Nc1c(-c2ccc(C#Cc3ccccn3)s2)nc2ccc(Cl)cn12
Outgoing: 86%

Incoming: State its inhibition at 10 µM on mGluR5 receptor (Sus scrofa, UniProt I3LUI7): COc1ccc(CNc2c(-c3ccc(C#Cc4ccccc4)s3)nc3cc(C)cc(C)n23)cc1
Outgoing: 100%
